target: T1, CD3 expressed on cell-surface of primary human T cells (human, UniProt P07766 23-207; P04234 22-171); assay: flow cytometry competition vs murine SP34-AF488 on human T cells, average
T1 construct: also called cell-surface CD3; human CD3
T1 sequence (P07766 23-207 limits assumed, chain 1 of 2): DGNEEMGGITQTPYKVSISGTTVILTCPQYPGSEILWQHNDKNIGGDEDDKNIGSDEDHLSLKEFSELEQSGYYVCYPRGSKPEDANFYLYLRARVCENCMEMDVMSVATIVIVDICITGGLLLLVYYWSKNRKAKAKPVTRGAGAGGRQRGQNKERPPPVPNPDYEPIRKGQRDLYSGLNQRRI
T1 sequence (P04234 22-171 limits assumed, chain 2 of 2): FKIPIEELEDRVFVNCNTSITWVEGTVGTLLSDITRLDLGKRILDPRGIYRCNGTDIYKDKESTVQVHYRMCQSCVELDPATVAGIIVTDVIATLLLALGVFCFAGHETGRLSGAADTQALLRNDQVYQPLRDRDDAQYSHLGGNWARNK
Please provide measured IC50 for the entries that follow.
Numbers only, in mg/L.

Look over these answered cases.
>  <binder>
huSP34.2.2 Fab-HF (Fab, V domains shown) VH: EVQLVESGGGLVQPGGSLRLSCAASGFTFSTYAMNWVRQAPGKGLEWVGRIRSKYNNYATYYAASVKGRFTISRDDSKNSLYLQMNSLKTEDTAMYYCVRHGNFGNSYVSWFAVWGQGTLVTVSS VL: QAVVTQEPSLTVSPGGTVTLTCGSSTGAVTTSNYANWVQQKPGQAPRGLIGGTSNRAPWTPARFSGSLLGGKAALTLSGAQPEDEAEYYCALWYSNLWVFGGGTKLTVL

>  <IC50 (mg/L)>
16.6

$$$$
>  <binder>
huSP34.3.2 Fab-HF (Fab, V domains shown) VH: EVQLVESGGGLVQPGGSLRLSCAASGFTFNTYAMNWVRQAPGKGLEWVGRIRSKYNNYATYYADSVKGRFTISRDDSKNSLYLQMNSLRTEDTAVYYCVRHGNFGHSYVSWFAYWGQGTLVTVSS VL: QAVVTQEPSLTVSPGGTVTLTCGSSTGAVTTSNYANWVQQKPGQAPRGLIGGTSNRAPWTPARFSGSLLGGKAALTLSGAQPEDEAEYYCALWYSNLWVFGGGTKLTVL

>  <IC50 (mg/L)>
9.19

$$$$

Briefly, IC50 measured for huSP34.4.1 Fab-HF (Fab, V domains shown) VH: EVQLVESGGGLVQPGGSLRLSCAASGFTFSTYAMNWVRQAPGKGLEWVGRIRSKYNNYATYYAASVKGRFTISRDDSKNSLYLQMNSLRTEDTAVYYCVRHGNFGHSYVSWFAVWGQGTLVTVSS VL: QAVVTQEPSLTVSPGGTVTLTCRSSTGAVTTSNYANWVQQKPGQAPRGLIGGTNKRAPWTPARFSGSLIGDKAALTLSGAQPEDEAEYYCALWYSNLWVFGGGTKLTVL : 7.74
